B1: Membrane-associated guanylate kinase, WW and PDZ domain-containing protein 2, residues 296 to 340; numbered along this chain, Q86UL8 (parent)
chain: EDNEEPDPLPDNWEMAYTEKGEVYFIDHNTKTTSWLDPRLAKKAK

variants of: B1; assay: abundance fitness (aPCA) (normalised: wild type 0, dead -1); higher = more abundant; growth selection in yeast, the domain comes from the species named; conditions: Homo sapiens
Threshold rule: abundance fitness greater than or equal to -0.1 is class 1; below that, class 0.

Kindly determine if abundance fitness recorded for `L36T` is above or exactly -0.1.
class 0

Kindly determine if abundance fitness recorded for `R39W` is above or exactly -0.1.
class 0

Kindly determine if abundance fitness recorded for `K45V` is above or exactly -0.1.
class 1

Kindly determine if abundance fitness recorded for `D2Y` is above or exactly -0.1.
class 1

Kindly determine if abundance fitness recorded for `N29V` is above or exactly -0.1.
class 1

Kindly determine if abundance fitness recorded for `R39Q` is above or exactly -0.1.
class 0

Kindly determine if abundance fitness recorded for `N3H` is above or exactly -0.1.
class 1

Kindly determine if abundance fitness recorded for `I26V` is above or exactly -0.1.
class 1

Kindly determine if abundance fitness recorded for `I26R` is above or exactly -0.1.
class 0

Kindly determine if abundance fitness recorded for `K43I` is above or exactly -0.1.
class 0

Kindly determine if abundance fitness recorded for `S34G` is above or exactly -0.1.
class 0

Kindly determine if abundance fitness recorded for `K20L` is above or exactly -0.1.
class 1

Kindly determine if abundance fitness recorded for `P10K` is above or exactly -0.1.
class 0

Kindly determine if abundance fitness recorded for `N3Q` is above or exactly -0.1.
class 1

Kindly determine if abundance fitness recorded for `V23L` is above or exactly -0.1.
class 1

Kindly determine if abundance fitness recorded for `T18C` is above or exactly -0.1.
class 0

Kindly determine if abundance fitness recorded for `Y17L` is above or exactly -0.1.
class 1

Kindly determine if abundance fitness recorded for `L9S` is above or exactly -0.1.
class 0

Kindly determine if abundance fitness recorded for `K42A` is above or exactly -0.1.
class 1

Kindly determine if abundance fitness recorded for `E1H` is above or exactly -0.1.
class 0

Kindly determine if abundance fitness recorded for `D37P` is above or exactly -0.1.
class 0
